Taken from ChEMBL document CHEMBL5346877.

Experiment: Downregulation of AR protein expression in human LAPC4 cells assessed as AR levels at 10 uM incubated for 24 hrs by immunoblotting analysis
Assay type: functional
valueType: Activity

[
  {
    "smilesStr": "Cn1nc2c(c1-c1ccc(F)cc1)C[C@@]1(C)[C@@H](CC[C@@H]3[C@@H]1CC[C@]1(C)[C@@H](O)CC[C@@H]31)C2",
    "Activity": "83%"
  },
  {
    "smilesStr": "Cn1nc2c(c1-c1ccc(Cl)cc1)C[C@@]1(C)[C@@H](CC[C@@H]3[C@@H]1CC[C@]1(C)C(=O)CC[C@@H]31)C2",
    "Activity": "67%"
  },
  {
    "smilesStr": "C[C@]12Cc3cnn(-c4ccc(Br)cc4)c3C[C@@H]1CC[C@@H]1[C@@H]2CC[C@]2(C)[C@@H](O)CC[C@@H]12",
    "Activity": ">=100%"
  },
  {
    "smilesStr": "C[C@]12Cc3c(nn(-c4ccccc4)c3-c3ccc(Cl)cc3)C[C@@H]1CC[C@@H]1[C@@H]2CC[C@]2(C)C(=O)CC[C@@H]12",
    "Activity": ">=100%"
  },
  {
    "smilesStr": "COc1ccc(-n2cc3c(n2)C[C@@H]2CC[C@@H]4[C@H](CC[C@]5(C)[C@@H](O)CC[C@@H]45)[C@@]2(C)C3)cc1",
    "Activity": ">=100%"
  }
]

Prompt line: What value of measured Activity is listed for `C[C@]12Cc3c(nn(-c4ccccc4)c3-c3ccccc3)C[C@@H]1CC[C@@H]1[C@@H]2CC[C@]2(C)C(=O)CC[C@@H]12` ?
Response line: >=100%
